Target: Tolloid-like protein 2 (Homo sapiens, UniProt Q9Y6L7)
Sequence (Q9Y6L7 whole entry, the tested form may be a part): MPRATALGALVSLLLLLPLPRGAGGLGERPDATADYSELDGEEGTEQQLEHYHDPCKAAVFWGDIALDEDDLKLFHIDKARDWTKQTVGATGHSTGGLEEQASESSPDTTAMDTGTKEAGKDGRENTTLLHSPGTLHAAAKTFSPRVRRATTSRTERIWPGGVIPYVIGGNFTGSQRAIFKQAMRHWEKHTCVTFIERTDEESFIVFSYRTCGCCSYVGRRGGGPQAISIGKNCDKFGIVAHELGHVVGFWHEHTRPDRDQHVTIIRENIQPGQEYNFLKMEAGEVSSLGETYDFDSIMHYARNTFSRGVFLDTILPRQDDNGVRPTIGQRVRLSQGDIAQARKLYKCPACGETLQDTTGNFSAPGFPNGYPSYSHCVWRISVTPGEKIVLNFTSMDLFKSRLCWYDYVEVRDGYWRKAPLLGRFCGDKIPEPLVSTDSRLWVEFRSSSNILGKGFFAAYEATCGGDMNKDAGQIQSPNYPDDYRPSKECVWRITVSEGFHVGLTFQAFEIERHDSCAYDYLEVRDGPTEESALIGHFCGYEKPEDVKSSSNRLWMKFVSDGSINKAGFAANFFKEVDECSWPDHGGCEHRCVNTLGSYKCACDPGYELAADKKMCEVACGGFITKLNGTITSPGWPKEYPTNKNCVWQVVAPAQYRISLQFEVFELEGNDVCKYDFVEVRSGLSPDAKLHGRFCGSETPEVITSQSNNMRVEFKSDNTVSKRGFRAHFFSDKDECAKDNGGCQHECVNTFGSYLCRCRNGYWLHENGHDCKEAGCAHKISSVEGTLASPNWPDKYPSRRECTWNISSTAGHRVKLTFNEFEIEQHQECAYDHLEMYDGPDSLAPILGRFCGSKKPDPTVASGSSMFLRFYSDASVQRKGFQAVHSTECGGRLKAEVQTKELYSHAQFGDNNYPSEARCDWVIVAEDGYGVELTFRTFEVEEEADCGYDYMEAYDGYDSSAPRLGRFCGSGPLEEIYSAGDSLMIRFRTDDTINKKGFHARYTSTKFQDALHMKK
Assay: Inhibition of C-terminal Avi-6x-His epitope tagged and N-terminal human RAGE signal sequence tagged recombinant human TLL2 (26 to 1015 amino acids) expressed in CHOE1A cells incubated for 60 mins with promyostatin peptide substrate by FRET based assay
Below, each entry is listed alongside its reported IC50.

Example entries and their recorded answers appear below.
{"smilesCode": "CCCCC[C@@H](C(=O)NCNC(=O)c1cccc(-c2ccc(C(=O)NCP(=O)(O)O)c(OCC)c2)n1)[C@@H](CC)N(O)C=O", "IC50": "< 631 nM"}
{"smilesCode": "COc1cc(OC)cc(-c2cccc(C(=O)NCNC(=O)[C@H](CC3CCCC3)CN(O)C=O)c2)c1", "IC50": "< 631 nM"}
{"smilesCode": "CCCCC[C@@H](C(=O)NCNC(=O)c1cccc(-c2ccc(C(=O)NCP(=O)(O)O)c(O)c2)n1)[C@@H](CC)N(O)C=O", "IC50": "< 631 nM"}

Query block: Give the reported IC50 for this molecule. O=CN(O)C[C@@H](CC1CCCC1)C(=O)NCNC(=O)c1cccc(-c2cccc(C(F)(F)F)c2)c1
Result block: < 631 nM

Query block: Give the reported IC50 for this molecule. CCCCC[C@@H](C(=O)NCNC(=O)c1cccc(-c2cc(OCC)cc(S(=O)(=O)O)c2)c1)[C@@H](CC)N(O)C=O
Result block: < 631 nM

====

Molecular target: Bone morphogenetic protein 1 (Homo sapiens)
Sequence (P13497 whole entry, the tested form may be a part): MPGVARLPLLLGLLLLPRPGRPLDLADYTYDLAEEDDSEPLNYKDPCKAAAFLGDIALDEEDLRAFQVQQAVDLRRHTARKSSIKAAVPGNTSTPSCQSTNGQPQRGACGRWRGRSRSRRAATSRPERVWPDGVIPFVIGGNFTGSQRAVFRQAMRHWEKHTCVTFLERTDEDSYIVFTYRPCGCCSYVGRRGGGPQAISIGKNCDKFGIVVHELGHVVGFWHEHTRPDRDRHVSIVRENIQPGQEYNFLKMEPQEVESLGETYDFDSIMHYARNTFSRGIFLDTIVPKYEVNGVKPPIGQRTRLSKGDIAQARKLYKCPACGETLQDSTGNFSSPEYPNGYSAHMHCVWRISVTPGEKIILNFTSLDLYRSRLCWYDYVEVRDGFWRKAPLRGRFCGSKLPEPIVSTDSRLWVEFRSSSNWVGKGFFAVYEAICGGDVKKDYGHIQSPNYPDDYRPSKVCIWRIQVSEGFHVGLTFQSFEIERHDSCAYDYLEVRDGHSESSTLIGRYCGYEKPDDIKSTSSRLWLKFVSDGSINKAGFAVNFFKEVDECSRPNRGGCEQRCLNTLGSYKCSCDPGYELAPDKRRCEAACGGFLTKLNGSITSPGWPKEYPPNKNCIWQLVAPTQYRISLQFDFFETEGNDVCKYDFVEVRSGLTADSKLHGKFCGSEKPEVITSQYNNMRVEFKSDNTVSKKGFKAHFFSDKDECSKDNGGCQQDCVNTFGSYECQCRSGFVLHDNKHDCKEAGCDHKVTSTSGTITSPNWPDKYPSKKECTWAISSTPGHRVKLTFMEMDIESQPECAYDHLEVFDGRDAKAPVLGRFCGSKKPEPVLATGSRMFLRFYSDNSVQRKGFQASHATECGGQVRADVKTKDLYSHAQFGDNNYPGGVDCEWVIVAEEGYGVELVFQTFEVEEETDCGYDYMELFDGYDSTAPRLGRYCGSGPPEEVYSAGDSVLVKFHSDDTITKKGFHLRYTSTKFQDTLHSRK
Assay: Inhibition of C-terminal FLAG-6x-His epitope tagged and N-terminal human RAGE signal sequence tagged human BMP1 (23 to 721 amino acids) expressed in CHO-E1A cells pre-incubated for 10 mins before promyostatin peptide substrate addition and measured after 30 mins using 50 nM BMP1 by FRET based assay
Assay type: cell-based
Below, each entry is listed alongside its reported IC50.

Example entries and their recorded answers appear below.
{"smilesCode": "CCCCC[C@@H](C(=O)NCNC(=O)c1cccc(-c2cccc(C(=O)O)c2C)n1)[C@@H](CC)N(O)C=O", "IC50": "< 251 nM"}
{"smilesCode": "CCCCC[C@H](CN(O)C=O)C(=O)NCNC(=O)c1cccc(-c2ccc(OC(F)(F)F)cc2)n1", "IC50": "< 251 nM"}

In the following, a different molecule is considered.
Query block: Give the reported IC50 for this molecule. CCCCC[C@@H](C(=O)NCNC(=O)c1cc(C(=O)O)cc(-c2cc(OCC)cc(C(=O)O)c2)c1)[C@@H](CC)N(O)C=O
Result block: < 251 nM

====

Biological target: Bone morphogenetic protein 1 (Homo sapiens)
Assay: Inhibition of C-terminal FLAG-6x-His epitope tagged and N-terminal human RAGE signal sequence tagged human BMP1 (23 to 721 amino acids) expressed in CHO-E1A cells pre-incubated for 10 mins before promyostatin peptide substrate addition and measured after 60 mins using 0.5 nM BMP1 by FRET based assay
Format: cell-based
pIC50: −log10 of the molar value.
assayEndpoint: pIC50

Example entries and their recorded answers appear below.
{"smilesCode": "O=CN(O)C[C@@H](CC1CCCC1)C(=O)NCNC(=O)c1cccc(Oc2ccccc2)c1", "pIC50": "> 6.90"}
{"smilesCode": "CCCCC[C@@H](C(=O)NCNC(=O)c1cccc(-c2ccc(CC(=O)O)cc2)n1)[C@@H](CC)N(O)C=O", "pIC50": "> 6.90"}
{"smilesCode": "CCCCC[C@H](CN(O)C=O)C(=O)NCNC(=O)c1cccc(-c2cccnc2)n1", "pIC50": "> 6.90"}

In the following, a different compound is considered.
Query block: Tell me its pIC50 on Bone morphogenetic protein 1 (Homo sapiens): CCCCC[C@@H](C(=O)NCNC(=O)c1cccc(-c2ccc(C(=O)O)c(C(=O)O)c2)n1)[C@@H](CC)N(O)C=O
Result block: > 6.90
